UniProt Q9Y5N1: reported AC50 for various compounds.
Sequence (Q9Y5N1 whole entry): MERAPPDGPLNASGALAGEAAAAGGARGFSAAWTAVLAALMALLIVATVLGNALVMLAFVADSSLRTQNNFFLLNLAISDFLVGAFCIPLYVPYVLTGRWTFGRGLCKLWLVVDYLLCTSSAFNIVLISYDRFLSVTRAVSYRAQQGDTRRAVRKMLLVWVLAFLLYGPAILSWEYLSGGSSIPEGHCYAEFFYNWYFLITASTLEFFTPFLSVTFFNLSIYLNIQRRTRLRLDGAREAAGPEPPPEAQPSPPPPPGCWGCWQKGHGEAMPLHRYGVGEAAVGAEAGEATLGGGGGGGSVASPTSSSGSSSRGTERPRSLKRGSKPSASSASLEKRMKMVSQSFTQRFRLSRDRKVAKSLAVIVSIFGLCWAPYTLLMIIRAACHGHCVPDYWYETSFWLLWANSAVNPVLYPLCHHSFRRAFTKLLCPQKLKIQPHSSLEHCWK
PROPERTY NAME: AC50

1) Cc1cc(CC(=O)O)n(C)c1C(=O)c1ccc(Cl)cc1 [ZOMEPIRAC]: > 30 µM
2) CNCCC=C1c2ccccc2CCc2ccccc21 [NORTRIPTYLINE]: > 30 µM
3) Clc1ccc2c(c1)C(c1ccccc1)=NCc1nncn1-2 [ESTAZOLAM]: > 10 µM
4) CO[C@@]1(NC(=O)Cc2cccs2)C(=O)N2C(C(=O)O)=C(COC(N)=O)CS[C@@H]21 [CEFOXITIN]: > 30 µM
5) CNC[C@H](O)c1cccc(O)c1 [PHENYLEPHRINE]: > 10 µM
6) N[C@H](Cc1cc(I)c(Oc2cc(I)c(O)c(I)c2)c(I)c1)C(=O)O [DEXTROTHYROXINE]: > 10 µM
7) Nc1ccn([C@@H]2O[C@H](CO)[C@@H](O)C2(F)F)c(=O)n1 [GEMCITABINE]: > 10 µM
8) CC(=O)OCC[N+](C)(C)C [ACETYLCHOLINE]: > 10 µM

Numbers sourced from ChEMBL document CHEMBL5291721.
